Origin of values: ChEMBL document CHEMBL3421570

Measured MBEC50, listed per entry.
Test system: Klebsiella pneumoniae
ASSAY PROTOCOL: Antibiofilm activity against Klebsiella pneumoniae incubated for 24 hrs followed by biofilm resuspension in PBS and measured after 24 hrs
Assay type: functional
PROPERTY LABEL: MBEC50 (µM)

SMILES | MEASURED
CCCCCCCN1C(=N)N(CCCC[C@H]2CNC(=N)N2CCCCC2CCCCC2)C[C@@H]1CC1CCCCC1 | 6.3
CCCCCCCN1C(=N)N(CCCC[C@H]2CNC(=N)N2CCc2cccc(C(F)(F)F)c2)C[C@@H]1CCCC | 7
CCCC[C@H]1CN(CCCC[C@H]2CNC(=N)N2CCc2cccc(C(F)(F)F)c2)C(=N)N1CCCCC1CCCCC1 | 4.7
CCCCCCCN1C(=N)N(CCCC[C@H]2CNC(=N)N2CCc2cccc(C(F)(F)F)c2)C[C@@H]1CC1CCCCC1 | 4.8
CCCCCCCN1C(=N)N(CCCC[C@H]2CNC(=N)N2CCC23C[C@H]4C[C@@H](C2)C[C@@H](C3)C4)C[C@@H]1CCCC | 8.6
